These measurements were taken from paper PMC6348443.

target: MOR (Homo sapiens, UniProt P35372); construct: host or cells: CHO (CHO-hMOR); assay: [35S]GTPγS binding assay, CHO-hMOR membranes; type: biochemical; conditions: full agonist ≥85% of the response to DAMGO
Sequence (P35372 whole entry): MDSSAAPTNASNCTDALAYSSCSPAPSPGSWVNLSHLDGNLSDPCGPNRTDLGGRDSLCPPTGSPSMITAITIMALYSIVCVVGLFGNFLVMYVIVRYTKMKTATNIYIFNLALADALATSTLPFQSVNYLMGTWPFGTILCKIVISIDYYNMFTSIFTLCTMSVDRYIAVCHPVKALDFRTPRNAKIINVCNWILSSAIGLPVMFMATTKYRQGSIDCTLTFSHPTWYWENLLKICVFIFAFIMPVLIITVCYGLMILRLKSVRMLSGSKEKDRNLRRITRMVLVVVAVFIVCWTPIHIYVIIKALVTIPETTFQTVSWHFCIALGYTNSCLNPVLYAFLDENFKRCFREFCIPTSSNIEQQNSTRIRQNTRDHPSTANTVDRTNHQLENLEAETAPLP
MEASURED_QUANTITY: functional profile at MOR (full/partial agonist)

CO[C@@]12CC[C@@H](N[C@H](Cc3ccccc3)C(=O)O)[C@@H]3Oc4c(O)ccc5c4[C@@]31CCN(C)[C@@H]2C5 [Compound 17b] : partial agonist
CO[C@@]12CC[C@@H](N[C@@H](C(=O)O)C(C)C)[C@@H]3Oc4c(O)ccc5c4[C@@]31CCN(C)[C@@H]2C5 [Compound 16b] : full agonist
CO[C@@]12CC[C@@H](N[C@@H](CC(=O)O)C(=O)O)[C@@H]3Oc4c(O)ccc5c4[C@@]31CCN(C)[C@@H]2C5 [Compound 13b] : partial agonists
CO[C@@]12CC[C@@H](N[C@H](C(=O)O)C(C)C)[C@@H]3Oc4c(O)ccc5c4[C@@]31CCN(C)[C@@H]2C5 : partial agonist
CO[C@@]12CC[C@@H](NCC(=O)NCC(=O)O)[C@@H]3Oc4c(O)ccc5c4[C@@]31CCN(C)[C@@H]2C5 [Compound 23a] : full agonist

Fill in the blank: the reported functional profile at MOR (full/partial agonist) of CO[C@@]12CC[C@@H](N[C@H](C(=O)N[C@@H](Cc3ccc(O)cc3)C(=O)O)C(C)C)[C@@H]3Oc4c(O)ccc5c4[C@@]31CCN(C)[C@@H]2C5 [Compound 22b] is ____.
partial agonists

// same read-out, input: `CO[C@@]12CC[C@@H](N[C@@H](Cc3ccccc3)C(=O)O)[C@@H]3Oc4c(O)ccc5c4[C@@]31CCN(C)[C@@H]2C5`
full agonist

// same read-out, input: CO[C@@]12CC[C@H](N[C@H](C(=O)N[C@@H](Cc3ccc(O)cc3)C(=O)O)C(C)C)[C@@H]3Oc4c(O)ccc5c4[C@@]31CCN(C)[C@@H]2C5 [Compound 22a]
partial agonists

###

# reported ED50 (95% CI); entries follow
test system: male CD1 mice; assay: acetic acid-induced writhing assay after sc administration; assay type: in vivo, mouse; conditions: mice, inhibition of writhing 30 min after drug administration

CN1CC[C@]23c4c5ccc(O)c4O[C@H]2[C@@H](O)C=C[C@H]3[C@H]1C5 [morphine, reference compound] : 437 (249–768) μg/kg
CO[C@@]12CC[C@H](N[C@H](Cc3ccccc3)C(=O)O)[C@@H]3Oc4c(O)ccc5c4[C@@]31CCN(C)[C@@H]2C5 [Compound 17a] : 18.1 (8.37–39.2) μg/kg
CO[C@@]12CC[C@H](N[C@@H](Cc3ccc(O)cc3)C(=O)O)[C@@H]3Oc4c(O)ccc5c4[C@@]31CCN(C)[C@@H]2C5.Cl.Cl : 14.6 (5.15–41.7) μg/kg
CO[C@@]12CC[C@H](N[C@@H](C)C(=O)O)[C@@H]3Oc4c(O)ccc5c4[C@@]31CCN(C)[C@@H]2C5 : 16.0 (5.45–47.0) μg/kg
CC[C@H](N[C@H]1CC[C@@]2(OC)[C@H]3Cc4ccc(O)c5c4[C@@]2(CCN3C)[C@H]1O5)C(=O)O [Compound 19a] : 17.5 (5.13–59.6) μg/kg

Kindly state the measured ED50 (95% CI) obtained for CO[C@@]12CC[C@H](N[C@@H](CC(N)=O)C(=O)O)[C@@H]3Oc4c(O)ccc5c4[C@@]31CCN(C)[C@@H]2C5 [Compound 11a] with male CD1 mice.
15.2 (6.89–33.3) μg/kg

// same read-out, input: CO[C@@]12CC[C@@H](N[C@@H](C(=O)O)C(C)C)[C@@H]3Oc4c(O)ccc5c4[C@@]31CCN(C)[C@@H]2C5 [Compound 16b]
14.0 (5.90–33.3) μg/kg
